Target: HIV-1 RT wild type (WT) enzyme (Human immunodeficiency virus type 1 group M subtype B)
Construct: Reverse transcriptase enzyme from the LAV strain of Human Immunodeficiency Virus (HIV-1) (1) was isolated from the bacterial strain JM109; made in house; host or cells: E. coli JM109 (clone pBRTprt1+ in vector pIBI21, lac promoter)
Test: Reverse Transcriptase (RT) Assay, wild type enzyme (RNA-dependent DNA polymerase activity)
Format: biochemical, Human Immunodeficiency Virus (HIV-1)
Conditions: 1 µM compound, read-out: Reverse Transciptase Assay % inhibition (1 µM) WT
Measurement type: inhibition at 1 µM (%)
One number for each entry, in %.

Worked examples follow.
CCCN1c2ncccc2C(=O)N(C)c2ccc(-c3cn[nH]c3)nc21 :: 90
CCN1c2ncccc2C(=O)N(C)c2ccc(-c3cn[nH]c3)nc21 :: 97

Answer for every listed entry: what is its inhibition at 1 µM? The entries follow.
1. CCCN1c2nc(-c3cn[nH]c3)ccc2NC(=O)c2cccnc21
2. CCN1c2ncccc2C(=O)N(C)c2ccc(-c3cc[nH]c3)nc21
3. CCN1c2ncccc2C(=O)N(C)c2ccc(-c3cccn3C(C)=O)nc21
4. CN1C(=O)c2cccnc2N(C2CC2)c2nc(-c3cc[nH]c3)ccc21

Output:
1: 60; 2: 95; 3: 74; 4: 92

Answer for every listed entry: what is its inhibition at 1 µM? The entries follow.
1. CCN1c2ncccc2C(=O)N(C)c2ccc(-c3cnn(C(C)=O)c3)nc21
2. CN1C(=O)c2cccnc2N(C2CC2)c2nc(-c3cn[nH]c3)ccc21
3. CCN1c2ncccc2C(=O)N(C)c2ccc(-c3cc[nH]n3)nc21

Output:
[96, 94, 67]

Answer for every listed entry: what is its inhibition at 1 µM? The entries follow.
1. CCN1c2ncccc2C(=O)N(C)c2ccc(-c3c[nH]c(C#N)c3)nc21
2. CCN1C(=O)c2cccnc2N(C)c2nc(-c3ccc[nH]3)ccc21
3. CN1C(=O)c2cccnc2N(C)c2nc(-c3ccc[nH]3)ccc21

Output:
[91, 58, 39]

Answer for every listed entry: what is its inhibition at 1 µM? The entries follow.
1. CCN1c2ncccc2C(=O)N(C)c2ccc(-c3cc[nH]c3C(C)=O)nc21
2. CCN1c2ncccc2C(=O)N(C)c2ccc(-c3c[nH]c4ccccc34)nc21
3. CCN1c2ncccc2C(=O)N(C)c2ccc(-c3c[nH]c(C(C)=O)c3)nc21
4. CCN1c2ncccc2C(=O)N(C)c2ccc(-c3c[nH]c(C(N)=O)c3)nc21
5. CCOC(=O)c1cc(-c2ccc3c(n2)N(CC)c2ncccc2C(=O)N3C)c[nH]1

Output:
[52, 96, 78, 76, 83]

Task: I'd like to know its inhibition at 1 µM. The compound in question is "CCN1c2ncccc2C(=O)N(C)c2ccc(-c3cnn(CC)c3)nc21"
Output: 67

---

Molecular target: HIV-1 RT Y181C (Human immunodeficiency virus type 1 group M subtype B, UniProt P03367, Y780C)
Construct: Utilization of mutant RT eraymes (Y181C and Y181L, prepared by site-directed mutagenesis); made in house
Experiment: Reverse Transcriptase (RT) Assay, Y181C mutant enzyme
Type: biochemical, Human Immunodeficiency Virus (HIV-1)
Conditions: 1 µM compound, read-out: Reverse Transciptase Assay % inhibition (1 µM) Y181C
# binarize inhibition at 1 µM: threshold 60% inclusive, high side Satisfied, low side Not satisfied

CCN1c2ncccc2C(=O)N(C)c2ccc(-c3c[nH]c(C#N)c3)nc21 :: Satisfied
CCN1c2ncccc2C(=O)N(C)c2ccc(-c3ccn(C)c3)nc21 :: Not satisfied
CN1C(=O)c2cccnc2N(C)c2nc(-c3ccc[nH]3)ccc21 :: Not satisfied
CCN1c2ncccc2C(=O)N(C)c2ccc(-c3cnn(C(C)=O)c3)nc21 :: Satisfied
CCCN1c2nc(-c3cn[nH]c3)ccc2NC(=O)c2cccnc21 :: Not satisfied

Task: Dear colleague, could you confirm whether "CCN1c2ncccc2C(=O)N(C)c2ccc(-c3cc[nH]n3)nc21" has inhibition at 1 µM at or above 60%?
Output: Satisfied

Task: What do you get for "CCN1c2ncccc2C(=O)N(C)c2ccc(-c3cn[nH]c3)nc21" ?
Output: Satisfied

Task: What do you get for "CCN1c2ncccc2C(=O)N(C)c2ccc(-c3c[nH]c(C(=O)O)c3)nc21" ?
Output: Not satisfied

Task: What do you get for "CCOC(=O)c1cc(-c2ccc3c(n2)N(CC)c2ncccc2C(=O)N3C)c[nH]1" ?
Output: Satisfied

---

Target: HIV-1 RT Y188L (Human immunodeficiency virus type 1 group M subtype B, UniProt P03367, Y787L)
Construct: effective against the reverse transcriptase of many mutant viruses; made in house
Test: Reverse Transcriptase (RT) Assay, Y188L mutant enzyme
Type: biochemical, Human Immunodeficiency Virus (HIV-1)
Conditions: 1 µM compound
Measurement type: Reverse Transciptase Assay % inhibition (1 µM) Y188L (%)
One number for each entry, in %.

CCCN1c2ncccc2C(=O)N(C)c2ccc(-c3cn[nH]c3)nc21 :: 63
CCN1c2ncccc2C(=O)N(C)c2ccc(-c3c[nH]c(C#N)c3)nc21 :: 55

Answer for every listed entry: what is its Reverse Transciptase Assay % inhibition (1 µM) Y188L? The entries follow.
1. CCN1c2ncccc2C(=O)N(C)c2ccc(-c3cc[nH]c3C#N)nc21
2. CCN1c2ncccc2C(=O)N(C)c2ccc(-c3ccc[nH]3)nc21
3. CCN1c2ncccc2C(=O)N(C)c2ccc(-c3cc[nH]n3)nc21
4. CCN1c2ncccc2C(=O)N(C)c2ccc(-c3c[nH]c(C(=O)O)c3)nc21
5. CCN1c2ncccc2C(=O)N(C)c2ccc(-c3cc[nH]c3C(C)=O)nc21
6. CCCN1c2nc(-c3cn[nH]c3)ccc2NC(=O)c2cccnc21

Output:
57
17
20
46
10
29

Task: I'd like to know its Reverse Transciptase Assay % inhibition (1 µM) Y188L. The molecule in question is "CN1C(=O)c2cccnc2N(C2CC2)c2nc(-c3cc[nH]c3)ccc21"
Output: 80

---

Test system: HTLV-IIIB strain of HIV-1
Assay: Syncytia (human T-cell culture) assay
Type: cell-based
Conditions: Human immunodeficiency virus 1, IIIB, 96 h; c8166 cells; read four days after virus challenge
Please go through the items and note down their IC50.
Numbers only, in nM.

Worked examples follow.
CCN1c2ncccc2C(=O)N(C)c2ccc(-c3ccc[nH]3)nc21 :: 160
CCN1c2ncccc2C(=O)N(C)c2ccc(-c3cn[nH]c3)nc21 :: 40
CN1C(=O)c2cccnc2N(C2CC2)c2nc(-c3cc[nH]c3)ccc21 :: 80000

Answer for every listed entry: what is its IC50? The entries follow.
1. CCN1c2ncccc2C(=O)N(C)c2ccc(-c3cc[nH]c3)nc21
2. CN1C(=O)c2cccnc2N(C2CC2)c2nc(-c3cn[nH]c3)ccc21

Output:
[40, 10]

---

Biological target: HIV-1 RT Y188L (Human immunodeficiency virus type 1 group M subtype B, UniProt P03367, Y787L)
Construct: effective against the reverse transcriptase of many mutant viruses; made in house
Experiment: Reverse Transcriptase (RT) Assay, Y188L mutant enzyme
Assay type: biochemical, Human Immunodeficiency Virus (HIV-1)
Conditions: 1 µM compound
Measurement type: Reverse Transciptase Assay % inhibition (1 µM) Y188L (%)
Answers are plain numbers, in %.

Worked examples follow.
CN1C(=O)c2cccnc2N(C)c2nc(-c3ccc[nH]3)ccc21 :: 18
CCN1c2ncccc2C(=O)N(C)c2ccc(-c3ccn(C)c3)nc21 :: 26
CCN1c2ncccc2C(=O)N(C)c2ccc(-c3cccn3C(C)=O)nc21 :: 23
CN1C(=O)c2cccnc2N(C2CC2)c2nc(-c3cn[nH]c3)ccc21 :: 84

Answer for every listed entry: what is its Reverse Transciptase Assay % inhibition (1 µM) Y188L? The entries follow.
1. CCN1c2ncccc2C(=O)N(C)c2ccc(-c3cc4cc(OC)ccc4[nH]3)nc21
2. CCN1c2ncccc2C(=O)N(C)c2ccc(-c3cnn(CC)c3)nc21
3. CCN1c2ncccc2C(=O)N(C)c2ccc(-c3c[nH]c4ccccc34)nc21
4. CCN1c2ncccc2C(=O)N(C)c2ccc(-c3c[nH]nc3C)nc21
5. CCN1c2ncccc2C(=O)N(C)c2ccc(-c3c[nH]c(C(N)=O)c3)nc21
6. CCN1c2ncccc2C(=O)N(C)c2ccc(-c3cnn(C(C)=O)c3)nc21
7. CCN1c2ncccc2C(=O)N(C)c2ccc(-c3c[nH]c(C(C)=O)c3)nc21
8. CCN1c2ncccc2C(=O)N(C)c2ccc(-c3cnn(C)c3)nc21

Output:
1: 58; 2: 13; 3: 72; 4: 66; 5: 30; 6: 80; 7: 27; 8: 24

Task: I'd like to know its Reverse Transciptase Assay % inhibition (1 µM) Y188L. The molecule in question is "CCN1C(=O)c2cccnc2N(C)c2nc(-c3ccc[nH]3)ccc21"
Output: 47
